Test system: Maize weevil [Sitophilus zeamais (Motschulsky)]
assay-name: Maize weevil on dipped corn seeds (MW), 48 hours
Assay type: in vivo
study-conditions: percent in solution, adult weevils
observation-type: LC50 MW

Some molecules with known LC50 MW results, for comparison:
[[record]]
molecule = "CC(C)C(=Nc1cccc(OC(F)(F)F)c1)OCc1ccc(F)c(Oc2ccccc2)c1"
recorded_value = "> 0.01%"

[[record]]
molecule = "CCC(=Nc1ccc(F)c(Cl)c1)OCc1cccc(Oc2ccccc2)c1"
recorded_value = "> 0.01%"

[[record]]
molecule = "CC(C)C(=Nc1ccc(C(F)(F)F)cc1)OCc1cccc(Oc2ccccc2)c1"
recorded_value = "> 0.01%"

[[record]]
molecule = "CCC(=Nc1ccc(F)c(F)c1)OCc1coc(Cc2ccccc2)c1"
recorded_value = "> 0.01%"


For each of the molecules below, state LC50 MW.
1. CC(=Nc1ccc(F)c(F)c1)OCc1coc(Cc2ccccc2)c1
2. CC(C)C(=Nc1ccc(F)c(Cl)c1)OCc1ccnc(Oc2ccc(F)cc2)c1
3. CC(C)C(=Nc1ccc(F)c(Cl)c1)OCc1ccc(F)c(Oc2ccc(Cl)cc2)c1
4. Fc1ccc(N=C(OCc2cccc(Oc3ccccc3)c2)C(F)F)cc1

[A]
> 0.01%
> 0.01%
0.0027%
> 0.01%

For each of the molecules below, state LC50 MW.
1. CCOc1ccc(N=C(OCc2ccc(F)c(Oc3ccccc3)c2)C(C)C)cc1Cl
2. CC(C)C(=Nc1ccc(F)c(Cl)c1)OCc1cccc(Oc2c(F)c(F)c(F)c(F)c2F)c1
3. CC(C)C(=Nc1ccccc1Cl)OCc1cccc(Oc2ccccc2)c1
4. CC(C)C(=Nc1ccc2c(c1)OCO2)OCc1cccc(Oc2ccc(Cl)cc2)n1

[A]
> 0.01%
> 0.01%
> 0.01%
0.01%

For each of the molecules below, state LC50 MW.
1. CC(C)C(=Nc1cccc(I)c1)OCc1ccc(F)c(Oc2ccc(F)cc2)c1
2. CC(C)(C)C(=Nc1ccc(Cl)c(Cl)c1)OCc1cccc(Oc2ccccc2)c1

[A]
1: > 0.01%; 2: > 0.01%

For each of the molecules below, state LC50 MW.
1. Clc1ccc(N=C(OCc2cccc(Oc3ccccc3)c2)C(Cl)Cl)cc1
2. CC(C)C(=Nc1cccc(C(F)(F)F)c1)OCC#CCOc1ccccc1
3. Fc1ccc(COC(=Nc2ccc(C(F)(F)F)cc2)C2CC2)cc1Oc1ccccc1
4. CC(C)C(=Nc1cccc(C(C)(C)C)c1)OCc1cccc(Oc2ccc(F)cc2)c1

[A]
1: > 0.01%; 2: > 0.01%; 3: < 0.01%; 4: > 0.01%
